These data points were gathered from PubChem BioAssay.

Target: Fibroblast growth factor 10 (Homo sapiens)
Assay: compounds binding fibroblast growth factor 10 – biochemical, small-molecule microarray, 635 nm fluorescence, primary screen (AID 1102)
Conditions: FGF10 binding, fluorescence 635 nm, higher = more signal
Please note: Fulfilled applies when composite z-score is 0.3 or greater, and Not fulfilled applies otherwise.

Past entries and their recorded results:
1) CC(C)CCC[C@@H](C)[C@H]1CC[C@@]2(C)C3=C(CC[C@]12C)[C@@]1(C)CC[C@H](OC(=O)c2ccc(N)cc2)C(C)(C)C1CC3 (stereo partly specified) : Fulfilled
2) COc1ccc([Si](C)(C)[C@@H]2[C@@H](CC(=O)N3Cc4ccccc4C[C@H]3CO)O[C@]3(C(=O)N(Cc4cccc(N5CCCCC5=O)c4)c4ccccc43)[C@H]2C)cc1 : Fulfilled
3) C=CCC(OC(C)=O)[C@@H]1[C@@H](N(Cc2ccc(-c3ccccc3)cc2)C(=O)Cc2ccc(OC)cc2)c2cc(OCCCO)ccc2N1C(=O)c1ccc(-c2ccccc2)cc1 (stereo partly specified) : Not fulfilled
4) COCCCNC(=O)[C@@]1(C)c2ccccc2C(=O)N(c2ccc(C)cn2)[C@H]1c1ccc(CO)cc1 : Not fulfilled
5) O=C1c2ccccc2[C@](Cc2ccccc2I)(C(=O)NCC(F)(F)F)[C@H](c2ccc(CO)cc2)N1Cc1ccccc1 : Not fulfilled

Pending compound:
// inclusive: composite z-score at least 0.3? input: `C[N+](C)(C)CCCC[C@@H]1NC(=O)[C@@H]2C[C@H](C(=O)NCCCCCNC(=O)CS)[C@H](c3cccc(OCCO)c3)N2C1=O`
Fulfilled
